The following molecules were reported with pIC50 values on BTK (Homo sapiens, UniProt Q06187) in different studies.
Sequence (Q06187 whole entry): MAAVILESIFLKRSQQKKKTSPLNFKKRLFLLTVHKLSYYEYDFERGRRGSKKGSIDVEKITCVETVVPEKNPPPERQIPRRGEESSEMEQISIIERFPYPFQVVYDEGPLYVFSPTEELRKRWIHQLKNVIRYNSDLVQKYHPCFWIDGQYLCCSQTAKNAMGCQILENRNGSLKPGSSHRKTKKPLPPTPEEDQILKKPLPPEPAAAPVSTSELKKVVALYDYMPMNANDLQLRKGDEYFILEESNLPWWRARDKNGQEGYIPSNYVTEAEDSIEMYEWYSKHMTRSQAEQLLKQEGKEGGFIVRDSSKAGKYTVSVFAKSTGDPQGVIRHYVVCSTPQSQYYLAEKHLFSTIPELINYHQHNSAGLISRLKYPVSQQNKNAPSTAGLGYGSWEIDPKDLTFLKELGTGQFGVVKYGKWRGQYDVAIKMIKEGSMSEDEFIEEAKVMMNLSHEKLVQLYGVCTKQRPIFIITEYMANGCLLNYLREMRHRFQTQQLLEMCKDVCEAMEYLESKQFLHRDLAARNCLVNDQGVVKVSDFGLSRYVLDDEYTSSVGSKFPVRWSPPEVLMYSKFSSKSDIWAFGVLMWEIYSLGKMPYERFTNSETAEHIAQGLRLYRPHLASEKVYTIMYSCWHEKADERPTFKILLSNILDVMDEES
pIC50: −log10 of the molar value.

Examples with their reported pIC50 follow.
C=CC(=O)N1CCCC(n2nc(-c3ccc(Oc4ccccc4)cc3)c3c(N)ncc(/C=C/c4ccc(F)cc4)c32)C1 (centres unmarked)    8.39
C=CC(=O)N1CC[C@]2(C1)C[C@H](n1c(NC(=O)c3ccc(-c4cnco4)s3)nc3cc(CN4CCOCC4)ccc31)C2    8.74
C=CC(=O)N1CC(CNc2nc(Nc3cn[nH]c3)nc3ccsc23)C1    ≥ 7.30
C=CC(=O)Nc1cc(Oc2ncnc3[nH]c(-c4ccc(N5CCOCC5)cc4)cc23)ccc1F    > 7.00
O=C(CNc1cccc(-c2nnn[nH]2)c1)N[C@@H]1CCCN(c2ncnc3[nH]ccc23)C1    5.00 to 6.00
Cc1cc(-c2ccnc(Nc3cnn(C)c3)n2)ccc1CNC(=O)c1ccc(Cl)c(Cl)c1    > 8.00
C=CC(=O)N1CCC[C@@H](n2nc(-c3ccc(Oc4ccccc4)cc3)c3cnccc32)C1    > 7.00

As a next step, examine the molecule that follows.
// pIC50 lookup, molecule = `C=CC(=O)N1CC[C@@H](n2c(F)c(-c3ccc(Cl)cc3)c3c(N)ncnc32)C1` , result: > 7.00
